Reference source for all entries: ChEMBL document CHEMBL1156113

test: Selectivity for Mycobacterium tuberculosis H37Rv over human MRC5 cells; design: reference not given here
Quick rule for you: Ratio at 100 or higher means y, lower means n.

Ask | Could you please find out whether CC(=O)N[C@@H]1[C@@H](O)[C@H](O)[C@@H](CO)O[C@H]1SC(=S)N(C)C has Ratio that meets 100 or exceeds it?
Reply | n

Ask | Hi team, for CN(C)C(=S)[S-].[Na+] [SODIUM DIMETHYLCARBAMODITHIOATE] , is the recorded Ratio at or above 100?
Reply | n

Ask | API: above_or_equal(metric=Ratio, cutoff=100) for item CO[C@H]1/C=C/O[C@@]2(C)Oc3c(C)c(O)c4c(O)c(c(/C=N/N5CCN(C)CC5)c(O)c4c3C2=O)NC(=O)/C(C)=C\C=C\[C@H](C)[C@H](O)[C@@H](C)[C@@H](O)[C@@H](C)[C@H](OC(C)=O)[C@@H]1C
Reply | y

Ask | Is Ratio for CN[C@@H]1[C@H](O[C@H]2[C@H](O[C@H]3[C@H](O)[C@@H](O)[C@H](N=C(N)N)[C@@H](O)[C@@H]3N=C(N)N)O[C@@H](C)[C@]2(O)C=O)O[C@@H](CO)[C@H](O)[C@H]1O at or above 100?
Reply | y

Ask | Given NNC(=O)c1ccncc1 , state whether its Ratio is at least 100.
Reply | y

Ask | Item CC[C@@H](CO)NCCN[C@@H](CC)CO with Ratio of 100 or above?
Reply | y
